Test system: Hepatotoxicity
assayProcedure: FDA HLAED, serum glutamic oxaloacetic transaminase (SGOT) increase
conditionInfo: human
Could you label it 1 if measured SGOT Increase - Index Value is 1 or higher, and -1 otherwise?

{"molecule": "CC1=C(/C=C/C(C)=C/C=C/C(C)=C/C(=O)O)C(C)(C)CCC1", "labelValue": -1}
{"molecule": "CC[C@H](C)C(=O)O[C@H]1C[C@H](O)C=C2C=C[C@H](C)[C@H](CC[C@@H](O)C[C@@H](O)CC(=O)O)[C@H]21", "labelValue": 1}
{"molecule": "CCOC(=O)[C@H](CCc1ccccc1)N[C@@H](C)C(=O)N1Cc2cc(OC)c(OC)cc2C[C@H]1C(=O)O", "labelValue": 1}
{"molecule": "CC(C)(C(=O)O)c1ccc(C(O)CCCN2CCC(C(O)(c3ccccc3)c3ccccc3)CC2)cc1 (stereo not drawn) [FEXOFENADINE]", "labelValue": -1}
{"molecule": "Nc1cc(Cl)c(N=C2NCCN2)c(Cl)c1", "labelValue": -1}
{"molecule": "FC(F)(F)C(Cl)Br (stereo not drawn)", "labelValue": 1}
{"molecule": "Nc1ccn([C@@H]2O[C@H](CO)[C@@H](O)C2(F)F)c(=O)n1", "labelValue": 1}
{"molecule": "CCOC(=O)[C@H](CCc1ccccc1)N[C@@H](C)C(=O)N1Cc2ccccc2C[C@H]1C(=O)O", "labelValue": 1}
{"molecule": "CC(=O)OCC(CCn1cnc2cnc(N)nc21)COC(C)=O", "labelValue": -1}
{"molecule": "COc1ccc(-c2ccc3cc(C(=O)O)ccc3c2)cc1C12CC3CC(CC(C3)C1)C2", "labelValue": -1}
{"molecule": "NC(N)=Nc1nc(CSCCC(N)=NS(N)(=O)=O)cs1", "labelValue": -1}
{"molecule": "Clc1ccccc1CN1CCc2sccc2C1", "labelValue": -1}
{"molecule": "CCCCC(=O)O[C@H]1CC[C@H]2[C@@H]3CCc4cc(O)ccc4[C@H]3CC[C@]12C [ESTRADIOL VALERATE]", "labelValue": 1}
{"molecule": "CN(C)C(=N)N=C(N)N", "labelValue": -1}
{"molecule": "CC1=C(/C=C/C(C)=C/C=C/C(C)=C\\C(=O)O)C(C)(C)CCC1", "labelValue": 1}
{"molecule": "Oc1ccc2c(c1)[C@@]13CCCC[C@@]1(O)[C@@H](C2)N(CC1CCC1)CC3", "labelValue": -1}
{"molecule": "CC(C)(C)NC(=O)[C@@H]1CN(Cc2cccnc2)CCN1C[C@@H](O)C[C@@H](Cc1ccccc1)C(=O)N[C@H]1c2ccccc2C[C@H]1O.O", "labelValue": 1}
{"molecule": "Cc1ccnc2c1NC(=O)c1cccnc1N2C1CC1", "labelValue": 1}

====

Tested on: Hepatotoxicity
assayProcedure: FDA HLAED, serum glutamic oxaloacetic transaminase (SGOT) increase
conditionInfo: human
One threshold, 3, splits the recorded SGOT Increase - Index Value values: lower ones are condition met, equal or higher ones are condition not met.

{"compound": "Sc1ncnc2nc[nH]c12 [MERCAPTOPURINE ANHYDROUS]", "labelValue": "condition not met"}
{"compound": "COc1cc(NCc2ccc3nc(N)nc(N)c3c2C)cc(OC)c1OC [TRIMETREXATE]", "labelValue": "condition not met"}
{"compound": "C[C@@H](O)[C@H]1C(=O)N2C(C(=O)O)=C(S[C@@H]3CN[C@H](C(=O)N(C)C)C3)[C@H](C)[C@H]12 [MEROPENEM]", "labelValue": "condition not met"}
{"compound": "CCC(C)n1ncn(-c2ccc(N3CCN(c4ccc(OCC5COC(Cn6cncn6)(c6ccc(Cl)cc6Cl)O5)cc4)CC3)cc2)c1=O (configuration not stated) [ITRACONAZOLE]", "labelValue": "condition not met"}
{"compound": "COCC(=O)Nc1c(I)c(C(=O)NCC(O)CO)c(I)c(C(=O)N(C)CC(O)CO)c1I (configuration not stated) [IOPROMIDE]", "labelValue": "condition met"}
{"compound": "CO[C@]12CC[C@@]3(C[C@@H]1[C@](C)(O)C(C)(C)C)[C@H]1Cc4ccc(O)c5c4[C@@]3(CCN1CC1CC1)[C@H]2O5 [BUPRENORPHINE]", "labelValue": "condition met"}
{"compound": "C[C@H](CS)C(=O)N1CCC[C@H]1C(=O)O [CAPTOPRIL]", "labelValue": "condition met"}
{"compound": "Nc1cc(-c2ccncc2)c[nH]c1=O [INAMRINONE]", "labelValue": "condition not met"}
{"compound": "c1ccc([C@H]2CN3CCSC3=N2)cc1 [LEVAMISOLE]", "labelValue": "condition not met"}
{"compound": "COc1ccc([C@@H]2Sc3ccccc3N(CCN(C)C)C(=O)[C@@H]2OC(C)=O)cc1 [DILTIAZEM]", "labelValue": "condition met"}
{"compound": "C[C@H]1[C@H](NC(=O)/C(=N\\OC(C)(C)C(=O)O)c2csc(N)n2)C(=O)N1S(=O)(=O)O [AZTREONAM]", "labelValue": "condition not met"}
{"compound": "CC1(C)S[C@@H]2[C@H](NC(=O)C3(N)CCCCC3)C(=O)N2[C@H]1C(=O)O [CYCLACILLIN]", "labelValue": "condition met"}

====

System: Hepatotoxicity
assayProcedure: FDA HLAED, serum glutamic pyruvic transaminase (SGPT) increase
conditionInfo: human
Numbered stars: 1 amine (or outer) side, 2 acyl side, 3 side chain; on linkers, the order of the positions; unused ones are H or OH. Bridge positions count the residues as written; N and C are the ends. Square brackets hold non-standard residues; d marks the D form. Peptide text beside a SMILES is read from it. I, II: the chains in the order shown. Actinocin(9to1) = Cc1c2oc3c(C)ccc(C(=O)[*:1])c3nc-2c(C(=O)[*:2])c(N)c1=O; NMeV = CN[C@H](C(=O)O)C(C)C; Sar = CNCC(=O)O
We begin with a simple list: items and their reported SGPT Increase - Index Value.
measuredEndpoint: SGPT Increase - Index Value

{"molecule": "CO[C@H]1/C=C/O[C@@]2(C)Oc3c(C)c(O)c4c(c3C2=O)C2=NC3(CCN(CC(C)C)CC3)NC2=C(NC(=O)/C(C)=C\\C=C\\[C@H](C)[C@H](O)[C@@H](C)[C@@H](O)[C@@H](C)[C@H](OC(C)=O)[C@@H]1C)C4=O [RIFABUTIN]", "measuredEndpoint": "SGPT Increase - Index Value", "reported": 31.8}
{"molecule": "Cc1cc(C2CCCCC2)n(O)c(=O)c1 [CICLOPIROX]", "measuredEndpoint": "SGPT Increase - Index Value", "reported": 0}
{"molecule": "Cc1c2oc3c(C)ccc(C(=O)N[C@@H]4C(=O)N[C@H](C(C)C)C(=O)N5CCC[C@H]5C(=O)N(C)CC(=O)N(C)[C@@H](C(C)C)C(=O)O[C@@H]4C)c3nc-2c(C(=O)N[C@@H]2C(=O)N[C@H](C(C)C)C(=O)N3CCC[C@H]3C(=O)N(C)CC(=O)N(C)[C@@H](C(C)C)C(=O)O[C@@H]2C)c(N)c1=O [DACTINOMYCIN] (I: T[dV]P[Sar][NMeV] / II: T[dV]P[Sar][NMeV]; ester I:1-I:C, II:1-II:C; linker I:N-II:N via Actinocin(9to1))", "measuredEndpoint": "SGPT Increase - Index Value", "reported": 23.7}

====

System: Hepatotoxicity
assayProcedure: FDA HLAED, serum glutamic pyruvic transaminase (SGPT) increase
conditionInfo: human

{"compound": "CO[C@H]1/C=C/O[C@@]2(C)Oc3c(C)c(O)c4c(c3C2=O)C2=NC3(CCN(CC(C)C)CC3)NC2=C(NC(=O)/C(C)=C\\C=C\\[C@H](C)[C@H](O)[C@@H](C)[C@@H](O)[C@@H](C)[C@H](OC(C)=O)[C@@H]1C)C4=O [RIFABUTIN]", "SGPT Increase - Activity Score": "Active"}
{"compound": "C[C@]12CC[C@@H]3c4ccc(OC(=O)c5ccccc5)cc4CC[C@H]3[C@@H]1CC[C@@H]2O [ESTRADIOL BENZOATE]", "SGPT Increase - Activity Score": "Inactive"}
{"compound": "CC(C)N1CCN(c2ccc(OCC3COC(Cn4cncn4)(c4ccc(Cl)cc4Cl)O3)cc2)CC1 (centres undefined) [TERCONAZOLE]", "SGPT Increase - Activity Score": "Inactive"}
{"compound": "CN(C)C(=N)N=C(N)N [METFORMIN]", "SGPT Increase - Activity Score": "Inactive"}
{"compound": "CCN[C@@H]1C[C@H](N)[C@@H](O[C@H]2OC(CN)=CC[C@H]2N)[C@H](O)[C@H]1O[C@H]1OC[C@](C)(O)[C@H](NC)[C@H]1O [NETILMICIN]", "SGPT Increase - Activity Score": "Inactive"}
{"compound": "C#C[C@]1(O)CC[C@H]2[C@@H]3CCC4=CC(=O)CC[C@@H]4[C@H]3CC[C@@]21CC [LEVONORGESTREL]", "SGPT Increase - Activity Score": "Active"}
{"compound": "CO/N=C(\\C(=O)N[C@@H]1C(=O)N2C(C(=O)O)=C(COC(N)=O)CS[C@H]12)c1ccco1 [CEFUROXIME]", "SGPT Increase - Activity Score": "Inactive"}
{"compound": "CC(C)COCC(CN(Cc1ccccc1)c1ccccc1)N1CCCC1 (centres undefined) [BEPRIDIL]", "SGPT Increase - Activity Score": "Inactive"}
{"compound": "CC1=C(C(=O)O)N2C(=O)[C@@H](NC(=O)[C@H](N)c3ccc(O)cc3)[C@H]2SC1 [CEFADROXIL]", "SGPT Increase - Activity Score": "Inactive"}
{"compound": "COc1cc(CC2c3c(cc(OC)c(OC)c3OC)CC[N+]2(C)CCCOC(=O)CCC(=O)OCCC[N+]2(C)CCc3cc(OC)c(OC)c(OC)c3C2Cc2cc(OC)c(OC)c(OC)c2)cc(OC)c1OC.[Cl-].[Cl-] (centres undefined) [DOXACURIUM CHLORIDE]", "SGPT Increase - Activity Score": "Inactive"}
{"compound": "CC[C@@H]1C(=O)OC[C@@H]1Cc1cncn1C [PILOCARPINE]", "SGPT Increase - Activity Score": "Inactive"}
{"compound": "CO[C@@]1(NC(=O)Cc2cccs2)C(=O)N2C(C(=O)O)=C(COC(N)=O)CS[C@@H]21 [CEFOXITIN]", "SGPT Increase - Activity Score": "Inactive"}
{"compound": "COC(=O)C1=C(C)NC(C)=C(C(=O)OCCN(C)Cc2ccccc2)C1c1cccc([N+](=O)[O-])c1 (centres undefined) [NICARDIPINE]", "SGPT Increase - Activity Score": "Inactive"}
{"compound": "CNC(=C[N+](=O)[O-])NCCSCc1csc(CN(C)C)n1 [NIZATIDINE]", "SGPT Increase - Activity Score": "Inactive"}
